System: HIV-1IIIB
Protocol: Drug combination anti-HIV-1 cytoprotection assay (MacSynergy II) in CEM-SS cells infected with HIV-1IIIB
Assay type: cell-based
Recorded conditions: in combination with Compound A, n = 3
Description: This work was performed using the Prichard and Shipman MacSynergy II three-dimensional model for statistical evaluation of combination anti-HIV assays. Using a standard microtiter plate format, each combination assay was performed in CEM-SS T-lymphocytic cells acutely infected with the a laboratory-adapted strain, HIV-1IIIB, and viral growth/inhibition was evaluated by measuring by monitoring virus-induced cytopathic effects (CPE) at the experimental endpoint. […]
Exercise: for every item that follows, state its recorded Mean Synergy Volume.
Answer format: numeric, μM^2% implied, no suffix.

Measured Mean Synergy Volume, Cc1cn([C@H]2C[C@H](N=[N+]=[N-])[C@@H](CO)O2)c(=O)[nH]c1=O : 40.7

Measured Mean Synergy Volume, CC(C)(C)NC(=O)[C@@H]1CN(Cc2cccnc2)CCN1C[C@@H](O)C[C@@H](Cc1ccccc1)C(=O)N[C@H]1c2ccccc2C[C@H]1O : 26.7

Measured Mean Synergy Volume, O=C1Nc2ccc(Cl)cc2[C@@](C#CC2CC2)(C(F)(F)F)O1 : 35.3

Measured Mean Synergy Volume, C[C@H](Cn1cnc2c(N)ncnc21)OCP(=O)(O)O : 28.3

Measured Mean Synergy Volume, Cc1c(O)cccc1C(=O)N[C@@H](CSc1ccccc1)[C@H](O)CN1C[C@H]2CCCC[C@H]2C[C@H]1C(=O)NC(C)(C)C : 34.
